System: NCI-H23 lung
assay details: NCI-60 one-dose screen, 48 h
cond: 10 µM unless noted
This is part of a sample that, as a whole, favours compounds with a hit. Of some 83,000 tested, about 20% had one in any assay. The source made the active and inactive calls. The calls were made as follows: active = growth percent below 10; inactive = the rest.
Write down the outcome that applies. Available outcomes: active, inactive

compound | class
Cc1ccc(-c2cc(C(=O)N3N=C(c4ccc(N)cc4)CC3c3ccc(Cl)cc3)c3ccccc3n2)cc1 (stereo unspecified) | inactive

Query string: Test call, this compound: `CS(=O)(=O)Nc1cc(-c2ccc3ncnc(Nc4ccc5c(cnn5Cc5cccnc5)c4)c3c2)cnc1Cl`
Result string: inactive

Query string: Name the outcome recorded for `CCCCCCCCNc1cc2c3c(c1)CCCN3CCC2` in the assay.
Result string: active

Query string: Write down the call the test reported for this compound. Item: `COc1ccc2nc3cc(Cl)ccc3c(NCCN)c2c1`
Result string: active

====

Test system: ACHN renal
assay details: NCI-60 one-dose screen, 48 h (100 = growth as untreated, 0 = no growth, -100 = all killed)
cond: 10 µM unless noted
Compounds without any hit were thinned out: in the full panel of roughly 83,000, 20% have a hit.
reported endpoint: growth (%)
I only need the number, in %, no unit after it.

The examples below pair each entry with its known result.
chemical string | measurement target | reported endpoint | assay result
O=C1CCCc2nc3sc4c(=O)n(-c5ccccc5Cl)nnc4c3cc21 | ACHN renal | growth | 107
COc1ccc2cc(-c3cnc4nonc4n3)ccc2c1 | ACHN renal | growth | 50.8

Recorded growth (molecule `CCCCCn1sc(=O)n(Cc2ccc(CNC(=O)OCc3ccc4c(Cl)cc(Cl)c(O)c4n3)cc2)c1=O` ): 28.9

Entry `CCNC(=O)Oc1ccc(/C(=C(/C)Cc2ccc(OC)cc2)c2ccc(OCCN3CCCC3)cc2)cc1` — recorded growth = 92.4

Recorded growth (molecule `CC(C)c1ccc(NC(=O)Nc2ccc(NC(=O)c3ccccc3N)cc2)cc1` ): 29.6

====

Test system: NCI-H23 lung
assay details: NCI-60 one-dose screen, 48 h (100 = growth as untreated, 0 = no growth, -100 = all killed)
cond: 10 µM unless noted
About 83,000 compounds went through this panel and 20% of them were active in at least one assay; those are over-represented in the sample as a whole. The source made the active and inactive calls. The calls were made as follows: active = growth percent below 10; inactive = the rest.
reported endpoint: growth

molecule | assay result
CCOC(=O)c1c(-c2ccc(Cl)cc2)c(C#N)c2c(C#N)c(N)nn2c1N | 85.9% (inactive)
COc1ccc(Cn2cc(C(=O)N=Nc3c(O)[nH]c4c(Cl)cccc34)nn2)cc1 | 99.3% (inactive)
N=c1c2c(=N)n3c(nc2nc2n1-c1ccccc1Sc1ccccc1-2)sc1cc(Cl)ccc13 | 7.38% (active)
CCOC(=O)/C=C/c1c(C)[nH]c(=O)[nH]c1=O | 81.2% (inactive)
CCCNc1nc2ccccc2c2c(=O)c3cccc(Cl)c3sc12 | 74.1% (inactive)

So for `OC(c1ccccc1)(c1ccccc1)c1ccccc1-c1ccccc1` , the logged growth turned out to be 83.9% (inactive)

Per the record, `O=C(N/N=C/c1ccc([N+](=O)[O-])cc1)c1ccc2nc(-c3ccc(Cl)cc3)[nH]c2c1` has growth of 16.2% (inactive)

Entry under test: `CN1CCN(Cc2cc(NC(=O)c3cccc(C#Cc4cccc5[nH]nc(N)c45)c3)cc(C(F)(F)F)c2)CC1` . Its growth was 41.3% (inactive)

====

Test system: RPMI-8226 leukemia
assay details: NCI-60 one-dose screen, 48 h
cond: 10 µM unless noted
This is part of a sample that, as a whole, favours compounds with a hit. Of some 83,000 tested, about 20% had one in any assay. Calls of active or inactive are those of the source. How the source made its calls: active means growth percent below 10; inactive means the rest.
Form entry, call: pick from y for active, n for inactive

Examples from the recorded data:
compound | class
Cc1nc2sc(C(=O)Nc3ccccc3)c(N)c2cc1C(=O)/C=C/c1ccccc1 | y
O=c1[nH]c(-c2ccc(Cl)cc2)cn1-c1ccc(-n2cc(-c3ccc(Cl)cc3)[nH]c2=O)cc1 | n
COc1cccc2c(N=NC(=O)c3ccc(S(N)(=O)=O)cc3)c(O)[nH]c12 | n

Query string: Name the outcome recorded for CC(C(=O)O)n1c(O)c(C=Nc2cccnc2)sc1=S (stereo not drawn) in the assay.
Result string: n

Query string: Please share the test call associated with CSCCC(NC(=O)c1ccccc1)C(=O)N/N=C1\S/C(=C/c2ccc(Cl)cc2)C(=O)N1C (stereo not drawn) .
Result string: n

Query string: For C=CC(C)(O)CC/C=C(\CO)C(=O)OC1C(C)OC(O[C@](C)(C=C)CC/C=C(\CO)C(=O)O[C@H]2C[C@@]3(C(=O)OC4OC(CO)C(O)C(O)C4OC4OC(C)C(OC5OC(CO)C(O)C5O)C(OC5OC(CO)C(O)C(O)C5O)C4O)C(CC2(C)C)C2=CCC4[C@@]5(C)CC[C@H](OC6OC(COC7OC(C)C(O)C(O)C7OC7OCC(O)C(O)C7O)C(O)C(O)C6NC(C)=O)C(C)(C)C5CC[C@@]4(C)[C@]2(C)C[C@H]3O)C(O)C1O (stereo partly drawn) , what call appears in the results of this test?
Result string: n

Query string: Hey, what did the test say about `COc1ccc(C(C)=O)cc1S(N)(=O)=O` ?
Result string: n

Query string: Outcome? `COc1ccc(C/C(C)=C(\c2ccc(O)cc2)c2ccc(OCCN3CCCC3)cc2)cc1`
Result string: n

====

Test system: SK-MEL-28 melanoma
assay details: NCI-60 one-dose screen, 48 h (100 = growth as untreated, 0 = no growth, -100 = all killed)
cond: 10 µM unless noted
Compounds without any hit were thinned out: in the full panel of roughly 83,000, 20% have a hit.
Measured growth, listed per entry for reference.
Hi! Could you send only the number? It should be in %, unit omitted.

Below, each entry is followed by its recorded growth result.
compound | reported endpoint | unit descriptor | assay result
Cc1cc(F)ccc1S(=O)(=O)Nc1cc(-c2c(O)ccc3ccccc23)c(O)c2ccccc12 | growth | % | 29.4
COc1cc(C2Cc3ncccc3-c3[nH]c(=O)c4cccnc4c32)cc(OC)c1OC (stereo not given) | growth | % | 66.4

Value sought: growth, system SK-MEL-28 melanoma, item `COc1ccc(Nc2ncccc2NC(=O)c2cn(Cc3cccc(Oc4ccccc4)c3)nn2)cc1OC` . Result: 83.4

The compound `CCN(CC)c1ccc(/C=C\c2cc(C)c3cc(C)ccc3n2)cc1` , tested on SK-MEL-28 melanoma, showed growth of 50.7

Item: `CCN(CC)CCOc1ccc(Nc2ncc3cc(-c4ccc(O)cc4)c(=O)n(C)c3n2)cc1` | System: SK-MEL-28 melanoma | growth: 55.7

====

System: SK-MEL-5 melanoma
assay details: NCI-60 one-dose screen, 48 h
cond: 10 µM unless noted
This is part of a sample that, as a whole, favours compounds with a hit. Of some 83,000 tested, about 20% had one in any assay. Activity calls are given as the source filed them. The calls were made as follows: active = growth percent below 10; inactive = the rest.
Choose one outcome from this list and give only that: 1 (active), 0 (inactive)

// known answers, use as guide
compound | measurement target | class
COc1ccc(/C=C/C(=O)c2cc3c(N)c(C(=O)Nc4ccccc4C)sc3nc2C)cc1 | SK-MEL-5 melanoma | 0
O=C(CCCCl)NNc1nccc(Nc2ccc(S(=O)(=O)Nc3ccncc3)cc2)n1 | SK-MEL-5 melanoma | 0
C[C@@H]1CC[C@@]2(OC1)O[C@H]1C[C@H]3[C@@H]4CC=C5C[C@@H](O[C@@H]6O[C@H](CO)[C@@H](O[C@@H]7O[C@@H](CO)[C@H](O)[C@H]7O)[C@H](O)[C@H]6O[C@@H]6O[C@@H](C)[C@H](O)[C@@H](O)[C@H]6O)CC[C@]5(C)[C@H]4CC[C@]3(C)[C@H]1[C@@H]2C | SK-MEL-5 melanoma | 1
C/C(=C(/c1ccc(Cl)cc1)c1ccc(OCCCN(C)C)cc1)c1ccc(Cl)cc1 | SK-MEL-5 melanoma | 0
N#CCC1=NC(c2cccs2)=Nc2ccccc2S1 | SK-MEL-5 melanoma | 0

Query string: Write down the call the test reported for this compound. Item: COC(=O)/C(CCC=C(C)C)=C1\[C@@H](OC(C)=O)C[C@@]2(C)[C@H]1CC(=O)[C@H]1[C@@]3(C)CCC(N4CCCC4)[C@@H](C)[C@@H]3CC[C@@]12C (stereo partly drawn)
Result string: 0

Query string: Hey, what did the test say about `CCOC(=O)C/C(=N\Nc1cc(=O)[nH]c2ccc(Cl)cc12)C(=O)OCC` ?
Result string: 0

Query string: # outcome recorded in this test, key = `CCN=C1C=CC(=C(c2ccc(N(C)C)cc2)c2ccc(N(C)C)cc2)c2ccccc21`
Result string: 1

Query string: Hey, what did the test say about `CCSC1=CC(=O)c2ccccc2C1=O` ?
Result string: 0

Query string: Assay outcome for `O=C1NC(=C(Cl)Cl)/C(=N/S(=O)(=O)N2CCCCC2)N1` : what was it?
Result string: 0

Query string: Query: recorded result category for `Nc1ccc([N+](=O)[O-])cc1N=C/C=C/c1ccccc1` in this test
Result string: 0

Query string: Recorded call for `O=C1/C(=C/c2ccc(Br)cc2)COc2ccc(O)c(O)c21` ?
Result string: 0

Query string: Recorded test call requested for `O=C1/C(=C/c2cccc([N+](=O)[O-])c2)COc2ccc(O)cc21`
Result string: 0

Query string: What call does the record list for CCN1C(=O)N(CC)C2C1NN=c1s/c(=C\c3cc4ccccc4[nH]3)c(=O)n12 (stereo not drawn) ?
Result string: 1

Query string: Lab log entry: COc1cccc(C(=O)OCC(O)C(=O)NC23CC4CC(CC(C4)C2)C3)c1 (stereo not drawn) — outcome as called in the assay?
Result string: 0

Query string: Which outcome did this test record for the compound `CCOC(=O)c1c(C)c2c(n1C)CSc1cc(S(=O)(=O)c3ccccc3)c(=O)[nH]c1-2` ?
Result string: 1

Query string: Could you kindly confirm the outcome this assay logged for O=C(/C=C/C12c3ccccc3C(c3ccccc31)C1C(=O)NC(=O)C12)c1ccc(F)cc1 (stereo not drawn) ?
Result string: 0

Query string: # lookup: test call for `CCCCCCCCCCCCCCCCCCOc1ccccc1CC(=O)OCC[N+]1(C)CCOCC1`
Result string: 0

Query string: Entry `CNC(=O)c1c(NC(=O)c2ccc(C(C)(C)C)cc2)sc2c(CN(C)C)c(O)ccc12` : call = ?
Result string: 1

Query string: Test call for this compound, please: NC(CSC(c1ccccc1)(c1ccccc1)c1ccc2c(c1)OCO2)C(=O)O (stereo not drawn)
Result string: 1

Query string: What call does the record list for `COc1ccc2cc(-c3cnc4nonc4n3)ccc2c1` ?
Result string: 0

Query string: Per the assay record, what outcome was assigned to `O=C(CSc1nc2ccc([N+](=O)[O-])cc2[nH]1)Nc1ccc(Br)cc1` ?
Result string: 0

Query string: Please let me know the test result on file for `CCCCc1oc2ccccc2c1C(=O)c1ccc(O)cc1` .
Result string: 0

Data origin: PubChem BioAssay (NCI)
